Provide the recorded ΔR/DRAΔ2 POA for the entries that follow.
- procedure_summary: Probe fluorescence ratio response to palmitoleic acid relative to ADIFAB2
- Format: binding
- condition: Table 5
Form: value (number only, do not type unit).

stdin: Suppose we examine the molecule L2P17H10: FABP probe, substitutions M18G G31F A73L vs SEQ ID NO: 2 (protein, listed as Rattus norvegicus, PEPTIDE (1)...(131) wild-type rat intestinal fatty acid binding protein) AFDGTWKVDRNENYEKFGEKMGINVVKRKLFAHDNLKLTITQEGNKFTVKESSNFRNIDVVFELGVDFAYSLLDGTELTGTWTMEGNKLVGKFKRVDNGKELIAVREISGNELIQTYTYEGVEAKRIFKKE ; what ΔR/DRAΔ2 POA value has been reported?
stdout: 1.2

stdin: Suppose we examine the molecule L2P21G3: FABP probe, substitutions M18I G31M F55M vs SEQ ID NO: 2 (protein, listed as Rattus norvegicus, PEPTIDE (1)...(131) wild-type rat intestinal fatty acid binding protein) AFDGTWKVDRNENYEKFIEKMGINVVKRKLMAHDNLKLTITQEGNKFTVKESSNMRNIDVVFELGVDFAYSLADGTELTGTWTMEGNKLVGKFKRVDNGKELIAVREISGNELIQTYTYEGVEAKRIFKKE ; what ΔR/DRAΔ2 POA value has been reported?
stdout: 1.4
